Data origin, for the record: patent US5747447A

STUDY TARGET: ADP-induced human platelet aggregation (Homo sapiens, UniProt P05106+P08514)
Sequence (P08514 32-1039): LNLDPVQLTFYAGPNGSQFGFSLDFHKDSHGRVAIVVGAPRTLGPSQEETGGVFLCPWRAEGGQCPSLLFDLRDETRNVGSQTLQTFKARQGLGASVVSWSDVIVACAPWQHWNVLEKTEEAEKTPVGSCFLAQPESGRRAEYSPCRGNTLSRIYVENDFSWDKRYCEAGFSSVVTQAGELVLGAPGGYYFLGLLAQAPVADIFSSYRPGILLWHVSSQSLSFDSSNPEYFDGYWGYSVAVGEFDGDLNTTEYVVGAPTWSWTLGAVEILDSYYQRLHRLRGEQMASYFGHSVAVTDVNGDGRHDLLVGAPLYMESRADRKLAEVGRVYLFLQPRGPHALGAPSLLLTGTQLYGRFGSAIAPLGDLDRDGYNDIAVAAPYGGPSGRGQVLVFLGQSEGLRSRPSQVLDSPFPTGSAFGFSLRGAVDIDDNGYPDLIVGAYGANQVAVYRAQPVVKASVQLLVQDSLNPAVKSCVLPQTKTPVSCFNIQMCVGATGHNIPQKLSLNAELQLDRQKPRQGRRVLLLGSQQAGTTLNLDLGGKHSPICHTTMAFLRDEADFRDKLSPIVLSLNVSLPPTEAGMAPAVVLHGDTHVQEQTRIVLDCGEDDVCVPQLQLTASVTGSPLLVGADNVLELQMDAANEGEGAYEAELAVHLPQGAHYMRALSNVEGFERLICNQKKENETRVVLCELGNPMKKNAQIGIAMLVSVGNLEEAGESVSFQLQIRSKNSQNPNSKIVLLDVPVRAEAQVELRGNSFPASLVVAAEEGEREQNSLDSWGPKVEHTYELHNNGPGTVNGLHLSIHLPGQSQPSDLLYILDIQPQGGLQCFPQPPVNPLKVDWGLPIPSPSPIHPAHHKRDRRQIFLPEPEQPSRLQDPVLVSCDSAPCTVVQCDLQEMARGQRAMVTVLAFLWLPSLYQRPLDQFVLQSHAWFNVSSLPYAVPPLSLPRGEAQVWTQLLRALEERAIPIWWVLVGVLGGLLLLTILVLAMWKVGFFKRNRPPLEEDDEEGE
Sequence (P05106 27-788): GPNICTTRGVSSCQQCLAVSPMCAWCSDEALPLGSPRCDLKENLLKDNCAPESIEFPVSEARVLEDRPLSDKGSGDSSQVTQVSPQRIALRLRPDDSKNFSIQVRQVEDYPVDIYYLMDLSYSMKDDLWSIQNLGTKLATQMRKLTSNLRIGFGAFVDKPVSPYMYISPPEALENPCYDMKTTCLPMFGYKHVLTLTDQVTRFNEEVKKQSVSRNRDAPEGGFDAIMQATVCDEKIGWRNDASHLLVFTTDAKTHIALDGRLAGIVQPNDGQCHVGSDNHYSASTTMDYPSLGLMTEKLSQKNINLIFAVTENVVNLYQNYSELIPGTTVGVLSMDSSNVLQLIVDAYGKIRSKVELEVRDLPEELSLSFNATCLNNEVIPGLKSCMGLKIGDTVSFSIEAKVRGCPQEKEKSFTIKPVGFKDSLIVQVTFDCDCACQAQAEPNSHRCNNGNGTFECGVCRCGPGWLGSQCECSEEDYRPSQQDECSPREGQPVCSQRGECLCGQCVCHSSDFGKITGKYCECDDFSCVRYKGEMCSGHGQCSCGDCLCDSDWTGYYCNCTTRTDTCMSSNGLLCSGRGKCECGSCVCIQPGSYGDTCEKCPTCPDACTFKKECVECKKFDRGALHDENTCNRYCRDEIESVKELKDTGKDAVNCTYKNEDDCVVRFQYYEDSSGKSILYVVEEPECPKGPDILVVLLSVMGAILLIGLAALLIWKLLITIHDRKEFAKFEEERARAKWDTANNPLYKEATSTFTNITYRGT
ASSAY REMARKS: standard aggregation inhibition assay (ADP-induced human platelet aggregation)
Type: cell-based
PARTICULARS: PAI activity, Example 15; read-out: Appr.IC20
Where a SMILES comes first, the peptide text is derived from it. Bridges are numbered along the chain shown (N, C = ends). [ ]: non-standard residue; d: D form. hArg = N=C(N)NCCCC[C@H](N)C(=O)O; Pen = CC(C)(S)[C@H](N)C(=O)O; NMeA = CN[C@@H](C)C(=O)O; Mpa = O=C(O)CCS; Sar = CNCC(=O)O
METRIC: IC20 (µM)

MOLECULE	UNIT OF MEASUREMENT	REPORTED MEASUREMENT
N=C(N)NCCCC[C@@H]1NC(=O)CCSSC[C@@H](C(N)=O)NC(=O)[C@@H]2CCCN2C(=O)[C@@H]2CCCN2C(=O)[C@H](Cc2c[nH]c3ccccc23)NC(=O)[C@H](CC(=O)O)NC(=O)CNC1=O [PAI 97, Mpr-Har-G-D-W-P-P-C-NH2] ([Mpa][hArg]GDWPPC-NH2; disulfide 1-8)	µM	1.4
C[C@H]1C(=O)N[C@@H](CCCCNC(=N)N)C(=O)NCC(=O)N[C@@H](CC(=O)O)C(=O)N[C@@H](Cc2c[nH]c3ccccc23)C(=O)N2CCC[C@H]2C(=O)N[C@H](C(N)=O)CSSCCC(=O)N1C [PAI 89, Mpr-(N-Me-Ala)-Har-G-D-W-P-C-NH2] ([Mpa][NMeA][hArg]GDWPC-NH2; disulfide 1-8)	µM	0.62
C[C@H]1C(=O)N[C@H](C(N)=O)CSSCCC(=O)N[C@@H](CCCCNC(=N)N)C(=O)NCC(=O)N[C@@H](CC(=O)O)C(=O)N[C@@H](Cc2c[nH]c3ccccc23)C(=O)N2CCC[C@H]2C(=O)N1C [PAI 94, Mpr-Har-G-D-W-P-(N-Me-Ala)-C-NH2] ([Mpa][hArg]GDWP[NMeA]C-NH2; disulfide 1-8)	µM	1.46
C[C@H]1NC(=O)CCSSC[C@@H](C(N)=O)NC(=O)[C@@H]2CCCN2C(=O)[C@H](Cc2c[nH]c3ccccc23)NC(=O)[C@H](CC(=O)O)NC(=O)CNC(=O)[C@H](CCCCNC(=N)N)NC1=O [PAI 86, Mpr-A.dagger.-Har-G-D-W-P-C-NH2] ([Mpa][dA][hArg]GDWPC-NH2; disulfide 1-8)	µM	1.15
C[C@@H]1NC(=O)CCSSC(C)(C)[C@@H](C(N)=O)NC(=O)[C@@H]2CCCN2C(=O)[C@H](Cc2c[nH]c3ccccc23)NC(=O)[C@H](CC(=O)O)NC(=O)CNC(=O)[C@H](CCCCN)NC1=O [PAI 101, Mpr-A-K-G-D-W-P-Pen-NH2] ([Mpa]AKGDWP[Pen]-NH2; disulfide 1-8)	µM	4.91
C[C@@H]1NC(=O)CCSSC(C)(C)[C@@H](C(N)=O)NC(=O)[C@@H]2CCCN2C(=O)[C@H](Cc2c[nH]c3ccccc23)NC(=O)[C@H](CC(=O)O)NC(=O)CNC(=O)[C@H](CCCCNC(=N)N)NC1=O [PAI 100, Mpr-A-(Har)-G-D-W-P-Pen-NH2] ([Mpa]A[hArg]GDWP[Pen]-NH2; disulfide 1-8)	µM	0.37
CN1CC(=O)N[C@@H](CCCCNC(=N)N)C(=O)NCC(=O)N[C@@H](CC(=O)O)C(=O)N[C@@H](Cc2c[nH]c3ccccc23)C(=O)N2CCC[C@H]2C(=O)N[C@H](C(N)=O)CSSCCC1=O [PAI 90, Mpr-Sar-Har-G-D-W-P-C-NH2] ([Mpa][Sar][hArg]GDWPC-NH2; disulfide 1-8)	µM	0.27
